Experiment: Effect of co-administered extracts on the pharmacokinetics of theophylline in rats
Conditions: male, Wistar, rat, in vivo, po, 240 mg/kg, T1/2 of Theophylline, Mean, Group 2 (CRE pretreatment); rats; mean of 6 series (column A)
measured-parameter: half-life (h)

>>> df
                                   compound  measured_parameter  numeric_result
0  Cn1c(=O)c2[nH]cnc2n(C)c1=O [Theophylline, 1,3-dimethylxantin]           half-life            2.81

###

Test: Effect of co-administered extracts on the pharmacokinetics of theophylline in rats
Details: male, Wistar, rat, in vivo, po, MRT of Theophylline, Mean, Group 2 (CRE pretreatment); rats; mean of 6 series (column A)
measured-parameter: MRT

                                   compound  result
0  Cn1c(=O)c2[nH]cnc2n(C)c1=O [Theophylline, 1,3-dimethylxantin]  4.45 h
